Where these numbers come from: patent US20240390512A1

Target: T1, human CDH6 (full-length and EC domain deletion mutants) (Homo sapiens, UniProt P55285, DEL487-608)
T1 construct: each one of the five EC domains could be deleted from full-length human CDH6; 3xFLAG (deletion mutants only, from the vector p3×FLAG-CMV-9); expressed in transfected cells; host or cells: 293α cells
T1 sequence (P55285 with tags, fused parts or gaps DEL487-608): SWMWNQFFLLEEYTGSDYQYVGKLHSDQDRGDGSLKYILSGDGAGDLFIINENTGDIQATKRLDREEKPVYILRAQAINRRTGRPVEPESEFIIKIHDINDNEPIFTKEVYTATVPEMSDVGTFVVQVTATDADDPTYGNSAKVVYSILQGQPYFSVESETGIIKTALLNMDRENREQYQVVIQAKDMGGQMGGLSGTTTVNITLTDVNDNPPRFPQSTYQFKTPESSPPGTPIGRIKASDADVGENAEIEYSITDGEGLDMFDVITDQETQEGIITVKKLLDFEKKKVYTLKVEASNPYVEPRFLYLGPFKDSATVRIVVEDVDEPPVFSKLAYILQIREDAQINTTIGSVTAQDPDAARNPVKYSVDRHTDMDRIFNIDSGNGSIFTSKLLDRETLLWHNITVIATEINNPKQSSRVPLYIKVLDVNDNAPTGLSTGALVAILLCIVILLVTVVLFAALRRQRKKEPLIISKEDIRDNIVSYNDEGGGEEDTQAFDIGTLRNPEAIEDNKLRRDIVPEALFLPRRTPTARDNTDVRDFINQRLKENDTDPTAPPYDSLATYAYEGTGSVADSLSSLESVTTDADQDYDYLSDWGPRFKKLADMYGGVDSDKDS
Assay: Epitope analysis of rat anti-CDH6 antibody by flow cytometry using domain deletion mutants
Type: binding
Details: flow cytometry; transfected 293α cells; antibody 20 nM
quantity name: binding to EC5 deletion mutant

>  <molecule>
rG061: rat anti-human CDH6 monoclonal antibody produced by hybridoma rG061; variable regions SEQ ID NO: 40 and 45 (antibody, listed as Rattus norvegicus, V domains shown) VL: DVQMTQSPSYLAASPGESVSISCKATKSISNYLAWYQQKPGEAYKVLIYSGSTLQSGTPSRFSGSGSGTDFTLTIRSLEPEDFGLYSCQQYYEKPLTFGSGTKLEIKRA VH: EVQLQESGPGLVKPSQSLSLTCSVTGYSITTYYWGWIRKFPGNKMEWMGYISYSGRTSYNPSLKSRMSITRDASKNQFFLQLNSVTTDDTATYYCARSPINHGGYWYFDFWGPGTMVTVSS

>  <result value>
bind

$$$$
